# assayText: Human Caco-2 bidirectional permeability A to B and B to A
# Type: in vitro ADME
# condition: Papp(B-A)/Papp(A-B), Caco-2, pH 7.4
propertyLabel: efflux ratio at 2 h
# respond with the number and nothing more

Could you tell me which efflux ratio at 2 h is on file for `COc1cc(OCCNCCCF)ncc1[C@@H]1c2[nH]c3ccccc3c2C[C@@H](C)N1CC(F)F` ?
1.8

* * *

# assayText: Human Caco-2 bidirectional permeability A to B and B to A
# Format: in vitro ADME
# condition: Caco-2, 2 hours, pH 7.4
propertyLabel: Papp at 2 h (×10⁻⁶ cm/s)
Express it in ×10⁻⁶ cm/s; write the number only.

Could you tell me which Papp at 2 h is on file for COc1cc(OCCNCCCF)ncc1[C@@H]1c2[nH]c3ccccc3c2C[C@@H](C)N1CC(F)F [Example 40] ?
3.2

* * *

Quick reference for Human plasma protein binding (% free) among some compounds
# assayText: Human plasma protein binding (equilibrium dialysis)
# Type: in vitro ADME
# condition: dialysis 18 hours
Express it in % free; write the number only.

• C[C@@H]1Cc2c([nH]c3ccccc23)[C@@H](c2c(F)cc(OCCNCCCF)cc2F)N1CC(C)(F)CO (single isomer, unassigned) [Example 17] = 3.9
• COCC(C)(F)CN1[C@H](c2c(F)cc(OCCNCCCF)cc2F)c2[nH]c3ccccc3c2C[C@H]1C (some centres unmarked) [Example 50] = 0.61
• C[C@@H]1Cc2c([nH]c3ccccc23)[C@@H](c2c(F)cc(OCCNCCCF)cc2F)N1CC(C)(F)F [Example 12] = 0.61
• C[C@@H]1Cc2c([nH]c3ccccc23)[C@@H](c2cnc(NCCNCCCF)cn2)N1CC(F)F [Example 71] = 13
• COc1cc(NCCNCCCF)ccc1[C@@H]1c2[nH]c3ccccc3c2C[C@@H](C)N1CC1(F)CC1 [Example 60] = 7.8
• C[C@@H]1Cc2c([nH]c3ccccc23)[C@@H](c2c(F)cc(OCC(CO)NCCCF)cc2F)N1CC(C)(C)F (single isomer, unassigned) [Example 53] = 0.55
• C[C@@H]1Cc2c([nH]c3ccccc23)[C@@H](c2cnc(OCCNCCCF)cc2F)N1CC1(F)COC1 [Example 62] = 13
• C[C@@H]1Cc2c([nH]c3ccccc23)[C@@H](c2ncc(OCCNCCCF)cn2)N1CC(C)(C)F [Example 39] = 7.2

Could you tell me which Human plasma protein binding (% free) is on file for C[C@@H]1Cc2c([nH]c3ccccc23)[C@@H](c2c(F)cc(N(C)CCNCCCF)cc2F)N1CC(F)F [Example 49] ?
0.40

Queued: C[C@@H]1Cc2c([nH]c3ccccc23)[C@@H](c2c(F)cc(NCCNCCCF)cc2F)N1CC(F)F [Example 54]
1.3

Queued: COc1cc(OCCNCCCF)ncc1[C@@H]1c2[nH]c3ccccc3c2C[C@@H](C)N1CC1(F)CC1 [Example 37]
8.5

Queued: C[C@@H]1Cc2c([nH]c3ccccc23)[C@@H](c2cnc(OCCNCCCF)cn2)N1CC(F)(F)CO [Example 69]
15

Queued: COc1nc(OCCNCCCF)ccc1[C@@H]1c2[nH]c3ccccc3c2C[C@@H](C)N1CC(C)(F)F [Example 77]
0.19

Queued: CC(C)CN1[C@H](c2ccc(OCCNCCC(F)F)cc2)c2[nH]c3ccccc3c2C[C@H]1C [Example 1]
1.4

Queued: COCC(C)(F)CN1[C@H](c2c(F)cc(OCCNCCCF)cc2F)c2[nH]c3ccccc3c2C[C@H]1C (single isomer, unassigned) [Example 51]
0.41

Queued: COc1cc(OCCNCCCF)ncc1[C@@H]1c2[nH]c3ccccc3c2C[C@@H](C)N1CC1(F)COC1 [Example 7]
17

Sourced from patent US10149839B2
